Tested on: DU-145 prostate
protocol-notes: NCI-60 one-dose screen, 48 h (100 = growth as untreated, 0 = no growth, -100 = all killed)
settings: 10 µM unless noted
Method: Cells are grown in 96 well plates and exposed to the test compound for 48 hours. Compounds are tested at a single concentration, which is 10^-5 M for most compounds. The reported endpoint is percent growth (GI% or GIPRCNT), where numbers from 0 - 100% represent growth inhibition, and numbers from -100% - 0 represent cell death. For example, a value of 40 represents 60% growth inhibition. A value of 0 means no net growth occurred over the course of the experiment. […]
The panel holds about 83,000 compounds, 20% with a hit somewhere; the sample as a whole holds those more often.
What growth was measured for each of the following?
Write the value in % as a bare number.

Please list growth recorded for the molecule O=C(CCl)N1CCCc2ccccc21
97.7

Please list growth recorded for the molecule N#Cc1ccc(C2C3=C(CCCC3=O)OC3=C2C(=O)c2ccccc2C3=O)cc1 (stereo not given)
86.8

Please list growth recorded for the molecule COc1cccc(C(=O)OCCn2nc3c4c(cccc42)C(=O)c2ccccc2-3)c1O
54.7

Please list growth recorded for the molecule Cc1cc(C)c(NC(=O)c2sc3nc4c(cc3c2N)CCCCCC4)c(C)c1
66.4

Please list growth recorded for the molecule COc1ccc(C(=O)c2cc(OC)c(OC)c(OC)c2)cc1OC(=O)C(Cl)(Cl)Cl
7.06

Please list growth recorded for the molecule Sc1cccc2cccnc12
27.1

Please list growth recorded for the molecule CC(=O)OCC1OC(OC2C(COC(C)=O)OC(OCCC[S-])C(OC(C)=O)C2OC(C)=O)C(OC(C)=O)C(OC(C)=O)C1OC(C)=O.[Au+].c1ccc(CN2[CH-]N(Cc3ccccc3)C(c3ccccc3)=C2c2ccccc2)cc1 (stereo not given)
26.1

Please list growth recorded for the molecule COc1cc(-c2csc(NC(=O)Nc3cc(Cl)cc(Cl)c3)n2)cc(OC)c1OC
-15.6

Please list growth recorded for the molecule CC(C)(C)c1nn(-c2ccccc2)c2c1COCN2Cc1ccc(Cl)cc1
103

Please list growth recorded for the molecule C#C[C@@]1(O)[C@@H](CO)O[C@@H](n2cc(-c3ccco3)c3c(N)ncnc32)[C@@H]1O
67.9

Please list growth recorded for the molecule COc1cc(NC(=O)Nc2cnc(Nc3ccc(N4CCOCC4)cc3)nc2Oc2ccc(F)cc2)cc(OC)c1
86.3

Please list growth recorded for the molecule CC(C)NS(=O)(=O)c1cccc(-c2ccc3c4c(n(CCCN(C)C)c(=O)c3c2)-c2ccccc2C4=O)c1
108

Please list growth recorded for the molecule CC1CCN(CCCCCOc2ccc3oc4ccccc4c(=O)c3c2)CC1
83.9

Please list growth recorded for the molecule O=C1C(Cl)=C(NCCCN(CCCNC2=C(Cl)C(=O)c3ccccc3C2=O)C2=C(Cl)C(=O)c3ccccc3C2=O)C(=O)c2ccccc21
-88

Please list growth recorded for the molecule O=C(Nc1ccccc1)NS(=O)(=O)c1c[nH]c(=S)[nH]c1=O
105

Please list growth recorded for the molecule COc1cc(/C=N/Nc2nc(-c3ccc(F)cc3)c(C#N)c(N3CCOCC3)n2)ccc1O
96.3

Please list growth recorded for the molecule O=C(Nc1nc(-c2ccccc2Cl)cs1)c1cc(-c2ccc(Br)cc2)nc2ccccc12
69.3

Please list growth recorded for the molecule CC1=C/C(=N\N=C2/C=C(C)CC(C)(C)C2)CC(C)(C)C1
105

Please list growth recorded for the molecule C=C1C(=O)O[C@H]2[C@H]1CC/C(COC(=O)/C=C/c1cccnc1)=C\CC[C@@]1(C)O[C@@H]21
13.1

Please list growth recorded for the molecule CCOC(=O)c1c(C)nc2c(c1N)/C(=C/c1ccc[nH]1)C(=O)N2Cc1ccc(C(F)(F)F)cc1
79.1
